- Assay System: Aurora-B (Homo sapiens, UniProt Q96GD4)
- Construct: in some cases as full-length kinases, in some cases as truncated fragments; purchased Upstate/Millipore #14-835
- Sequence (Q96GD4 whole entry, the tested form may be a part): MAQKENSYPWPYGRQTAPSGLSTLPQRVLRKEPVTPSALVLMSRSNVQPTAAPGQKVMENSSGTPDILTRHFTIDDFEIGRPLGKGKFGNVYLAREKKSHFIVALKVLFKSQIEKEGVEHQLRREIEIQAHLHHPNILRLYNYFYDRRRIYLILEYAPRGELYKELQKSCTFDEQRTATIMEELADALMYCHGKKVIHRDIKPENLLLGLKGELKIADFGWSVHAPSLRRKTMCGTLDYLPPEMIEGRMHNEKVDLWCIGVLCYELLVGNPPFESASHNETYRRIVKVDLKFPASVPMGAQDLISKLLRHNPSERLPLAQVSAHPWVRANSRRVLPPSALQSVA
- Assay Summary: Cell-free kinase assay (ALPHA technology), Aurora-B
- Assay type: biochemical
- Measurement Setup: at 10 μM ATP; read-out: IC50 Aurora-B
Kindly apply the following: True if IC50 is less than 800 nM, False in every other case.

Molecule: CCNC(=O)Nc1ccnc2cc(-c3ccc(O)c(OC)c3)cnc12 [Compound 9]
Assigned Category: True
--
Molecule: Cn1cc(-c2cnc3c(NC(=O)NC4CCC4)ccnc3c2)cn1 [Compound 17]
Assigned Category: True
--
Molecule: O=C(Nc1ccnc2cc(-c3ccc4[nH]ccc4c3)cnc12)NC1CC1 [Compound 40]
Assigned Category: False
--
Molecule: CCNC(=O)Nc1ccnc2cc(-c3cc(C)c(O)c(C)c3)cnc12 [Compound 16]
Assigned Category: False
--
Molecule: COc1cc(-c2cnc3c(NC(=O)NC(C)(C)C)ccnc3c2)ccc1O [Compound 12]
Assigned Category: False
--
Molecule: O=C(Nc1ccnc2cc(-c3ccccc3)cnc12)NC1CC1 [Compound 39]
Assigned Category: False

Strictly below 800 nM: is that where IC50 of Cn1cc(-c2cnc3c(NC(=O)NC4CCCCC4)ccnc3c2)cn1 [Compound 22] sits?
True

Strictly below 800 nM: is that where IC50 of Cn1cc(-c2cnc3c(NC(=O)NCc4ccccc4)ccnc3c2)cn1 [Compound 31] sits?
True

Strictly below 800 nM: is that where IC50 of CCNC(=O)Nc1ccnc2cc(-c3cnn(C)c3)cnc12 [Compound 10] sits?
True

Strictly below 800 nM: is that where IC50 of Cn1cc(-c2cnc3ccc(NC(=O)NCc4ccccc4)nc3c2)cn1 [Compound 28] sits?
True

Strictly below 800 nM: is that where IC50 of Cn1cc(-c2cnc3ccc(NC(=O)Nc4ccccc4)nc3c2)cn1 [Compound 27] sits?
False

Strictly below 800 nM: is that where IC50 of CCCCCCNC(=O)Nc1ccnc2cc(-c3cnn(C)c3)cnc12 [Compound 25] sits?
False
